B1: FERM and PDZ domain-containing protein 4, residues 75 to 154; numbered along this chain, Q14CM0 (parent)
chain: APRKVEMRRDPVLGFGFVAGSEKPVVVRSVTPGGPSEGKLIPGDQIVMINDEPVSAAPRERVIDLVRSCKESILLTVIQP

- Variants of: B1
- ASSAY EXPLANATION: abundance fitness (aPCA) (normalised: wild type 0, dead -1); higher = more abundant; growth selection in yeast, the domain comes from the species named
- TEST SETTINGS: Homo sapiens
PARAMETER: abundance fitness

[
  {
    "CHANGES": "C69K",
    "PARAMETER": "abundance fitness",
    "MEASURED": -0.089
  },
  {
    "CHANGES": "T76C",
    "PARAMETER": "abundance fitness",
    "MEASURED": -0.088
  },
  {
    "CHANGES": "E6V",
    "PARAMETER": "abundance fitness",
    "MEASURED": -0.091
  }
]
